Where do these numbers come from? They come from ChEMBL document CHEMBL1201862.

test system: HL-60; experiment: NCI tumour cell line growth inhibition, 48 h
Calls of active or inactive are those of the source. No stated cut-off is given here; in the data, active = GI50 up to about 1.1 µM and inactive = higher.
Pick one and only one: 1.0 = active, 0.0 = inactive

Some entries whose results are on file:
Call for entry "COCN/C(N)=N/C#N" : 0.0

Hi, sorry to bother you, what did the test record for "O=C(O)C(=Cc1ccnc2ccccc12)C(=O)O" ? 0.0

Hey, what did the test say about "C[C@]12CC[C@H]3[C@@H](CC[C@]4(O)C[C@@H](O)CC[C@]34CO)[C@@]1(O)CC[C@@H]2C1=CC(=O)OC1" ? 0.0

So what was the verdict on "Cc1sc(/N=C/c2c[nH]c3ccccc23)c(C#N)c1C" in this test? 0.0

Status in this test for "N#CCCN(c1ccc(/C=N/c2cccc([N+](=O)[O-])c2)cc1)S(=O)(=O)c1ccccc1" ? 0.0

Others:
Could you please tell me the result logged for "CCOC(=O)CCCc1cc(O)c2c(C)c3[nH]c4ccc(Cl)cc4c3c(C)c2n1" in this assay? 0.0

Per the assay record, what outcome was assigned to "C[C@]12C[C@H](c3ccccc3)Nc3ccccc3N1C(c1ccccc1)=NO2" ? 0.0

I'd appreciate the recorded outcome for CC(C)NC1CCCCC2c3ccccc3C12O (stereo unspecified) from this test. 0.0

Recorded call for "Nc1n[n+]([O-])c2cnccc2[n+]1[O-]" ? 0.0

# lookup: test call for "CN1CCN(c2cc3nc4cc(O)cc(O)c4c(O)c3cc2N)CC1" 0.0

Kindly provide the recorded test outcome for the following compound: CO[C@H]1C=C[C@]23c4cc5c(cc4CN(CC2O)[C@@H]3C1)OCO5 (stereo partly specified) 1.0

---

tested on: MDA-MB-231; test: NCI tumour cell line growth inhibition, 48 h
Active and inactive are the calls of the source. Cut-off read from the data, not from the text of the source: active = GI50 up to about 1.1 µM and inactive = higher.
endpoint.label: GI50

Known results for compounds:
Consider the compound "CCOC(=O)CCCc1cc(O)c2c(C)c3[nH]c4ccc(Cl)cc4c3c(C)c2n1" and give its measured GI50. 23.9 µM (inactive)

Find the recorded GI50 belonging to "N/C(=N\NC(=O)c1nc2ccccc2s1)c1ccccn1" and report it. 14 µM (inactive)

What value of GI50 has been recorded for this entry: CN1C(=S)C(c2ccccc2)Sc2ccccc21 (stereo not drawn) > 100 µM (inactive)

Which GI50 value belongs to "O=C(O)C(=Cc1ccnc2ccccc12)C(=O)O" ? > 100 µM (inactive)

Reported GI50 for COC(=O)C12Oc3ccc(-c4ccc5c(c4O)C(O)=C4C(=O)CC(C)C(O)C4(C(=O)OC)O5)c(O)c3C(O)=C1C(=O)CC(C)C2O (stereo not drawn) : what is it? 0.63 µM (active)

Can you look up the measured GI50 of "CC1(C)CC(=O)C(CCC(=O)/C=C/c2ccccc2)C(=O)C1" for me? > 100 µM (inactive)

Please look up its GI50: CCOC1OC(CO[Si](C)(C)C(C)(C)C)C(O)CC1n1ccc(=O)[nH]c1=O (stereo not drawn) 67 µM (inactive)

Name the recorded GI50 for "COc1cc2ccc1OCc1cccc(n1)COc1ccc(cc1OC)/C=N\CCNCCNCC/N=C\2" . > 100 µM (inactive)

---
Dear colleague, I am looking for the recorded GI50 of the following compound: "c1ccc2cc(CNCCOCCOCCNCc3ccc4ccccc4c3)ccc2c1" 1.57 µM (inactive)

// returns reported GI50 for input "CCCCc1ccc(Nc2ncc3ncn(COCCO)c3n2)cc1" 18.9 µM (inactive)

I'd like to know its GI50. The compound in question is "COc1ccc(/C=C2/C(=O)N(C(=O)c3ccccc3O)N=C2C)cc1" 0.126 µM (active)

Given the compound "COc1ccc(/C=C/c2sc3ccccc3[n+]2CCCCI)cc1OC" , what is its reported GI50? > 10 µM (inactive)

Query (compound): "O=C(O)c1cncc(C(=O)O)c1" ; field requested: GI50 > 100 µM (inactive)

# lookup: GI50 of CC(CN(C)C)C(=O)c1ccccc1C(=O)O (stereo not drawn) 18.8 µM (inactive)

Need GI50 of "CCOc1ccnc2c(OC)c(C)c3nc4ccccc4nc3c12" , thanks. > 100 µM (inactive)

Look at this compound and give its reported GI50. "CN1CCN(c2cc3nc4cc(O)cc(O)c4c(O)c3cc2N)CC1" 1.53 µM (inactive)

Request the reported GI50 associated with COC(=O)C12CCC(C(=O)OC)(Cc3c(c4ccccc4n3S(=O)(=O)c3ccccc3)C1)C2=O (stereo not drawn) > 100 µM (inactive)

For "Cc1cc(S(=O)(=O)Nc2nc3ccccc3[nH]2)c(S)cc1Cl" , what is its reported GI50? 58.6 µM (inactive)

---

system: NCI/ADR-RES; test: NCI tumour cell line growth inhibition, 48 h
Calls of active or inactive are those of the source. Cut-off read from the data, not from the text of the source: active = GI50 up to about 1.1 µM and inactive = higher.
endpoint.label: GI50

Kindly state the measured GI50 obtained for CC1C(=O)C23OC[C@@]1(C)C1(O)CC[C@@H](C)[C@]21CC3=O (stereo not given in full) with NCI/ADR-RES. > 100 µM (inactive)

Find the measured GI50: item O=C(O)CC(NC(=O)CP(=O)(O)O)C(=O)O (stereo not given) , target or system NCI/ADR-RES. 1020 µM (inactive)

Under NCI/ADR-RES: GI50 value of "COc1cc2c(cc1OC)C1Cc3cc(OC)c(OC)cc3C(C2)O1" ? > 100 µM (inactive)

Next:
Hello, I am looking for reported GI50 with NCI/ADR-RES for "O=S1(=O)c2ccccc2Oc2ccc(C(/C=N/O)=N/O)cc21" . Could you help? 17.4 µM (inactive)

What value of GI50 on NCI/ADR-RES does "CC(=O)O[C@H]1CC[C@@]2(C)C(=CC[C@@H]3[C@@H]2CC[C@]2(C)c4c(cc(C#N)c(=N)n4C(C)=O)C[C@@H]32)C1" have? 17.2 µM (inactive)

What measured GI50 is associated with CC(=O)OC1CCn2c1nc1c2C(=O)C=C(N2CC2)C1=O (stereo not given) on NCI/ADR-RES? 0.402 µM (active)

---

Each item that follows carries a reported GI50.
tested on: RPMI-8226; test: NCI tumour cell line growth inhibition, 48 h
Active and inactive are the calls of the source. Cut-off read from the data, not from the text of the source: active = GI50 up to about 1.1 µM and inactive = higher.

Record excerpt, results attached:
Which measured GI50 belongs to "COc1ccc(C2=NN(C(C)=O)c3nc4ccccc4nc3O2)cc1" , tested on RPMI-8226? > 100 µM (inactive)

Give recorded GI50 with RPMI-8226 for the following molecule: O[C@]12c3ccccc3C1CCCCC2N1CCOCC1 (stereo not given in full) > 100 µM (inactive)

Field: GI50 (RPMI-8226). Entry: "CCOC(=O)c1[nH]c2cccc3c2c1CC[C@H](NC(=O)C(F)(F)F)C3=O" > 100 µM (inactive)

RPMI-8226 / GI50 / "CCCCCCCCCCn1cccc1/C=C/c1ccc(/C=C/c2cccn2CCCCCCCCCC)cc1" : value? > 100 µM (inactive)

Requested read-out GI50, target or system RPMI-8226, entry "CN(C(=O)[C@@H](NC(=O)OC(C)(C)C)c1ccccc1)[C@H]1CCCC[C@@H]1N1CCCC1" > 100 µM (inactive)

Find the measured GI50: item "O=C(/C=C\c1cccc2ccccc12)c1cccc2ccccc12" , target or system RPMI-8226. 6.95 µM (inactive)

# returns recorded GI50 (system: RPMI-8226) for COc1ccc(C(O)/C(=N\NC(N)=S)c2nc3ccc([N+](=O)[O-])cc3nc2O)cc1OC (stereo not given) > 100 µM (inactive)

Record lookup: for RPMI-8226, what GI50 belongs to "CNc1ccc(C)cc1S(=O)(=O)c1ccccc1[N+](=O)[O-]" ? 49.4 µM (inactive)

Give GI50 (RPMI-8226) of the following molecule: "Cc1ccc(S(=O)(=O)N/N=C/c2oc(-c3cccc([N+](=O)[O-])c3)c(-c3cccc([N+](=O)[O-])c3)c2[N+](=O)[O-])cc1" 24 µM (inactive)

Shift focus to the following entry.
So what GI50 did "N#C/C(=C\c1cc(O)ccc1O)C(N)=O" get with RPMI-8226? 27.2 µM (inactive)

---

GI50 values by entry
test system: SF-268; experiment: NCI tumour cell line growth inhibition, 48 h
Calls of active or inactive are those of the source. No stated cut-off is given here; in the data, active = GI50 up to about 1.1 µM and inactive = higher.

Given "CC1(C)[C@H]2Cc3cc(-c4cc5c(cn4)[C@@H]4C[C@H]([C@@H]5[C@@H]5c6cc(-c7cc8c(cn7)[C@@H]7C[C@H](C8)C7(C)C)ncc6[C@@H]6C[C@H]5C6(C)C)C4(C)C)ncc3[C@@H]1C2" , state its recorded GI50. > 100 µM (inactive)

Give its GI50 value. Item: O=C1CCC(c2nc3ccccc3o2)C(=O)N1 (centres undefined) > 100 µM (inactive)

Record request: GI50 value, item "COc1cc2c(cc1OC)C1Cc3cc(OC)c(OC)cc3C(C2)O1" > 100 µM (inactive)

# get_value(readout='GI50', item= "CC[n+]1c(/C=C/c2ccc(N(CCCl)CCCl)cc2)ccc2cc(I)ccc21" ) 1.78 µM (inactive)

---
Suppose we examine the compound "O=C(N[C@H]1c2ccsc2/C(=N/O)[C@H]1O)C(F)(F)F" ; what GI50 value has been reported? > 100 µM (inactive)

Recorded GI50 for "O=C(O)CCNCCCCNCCC(=O)O" , please? > 100 µM (inactive)

Look at this compound and give its reported GI50. "Cc1ccc(-c2cn3c(nc4ccccc43)c(C)n2)cc1" > 46.6 µM (inactive)

GET /values?readout=GI50&item= "c1ccc(Nc2nnc(-c3nsc4ccccc34)o2)cc1" > 100 µM (inactive)

Would you mind telling me what GI50 value was observed for "COc1ccc(Nc2nc3cc(C(F)(F)F)ccc3nc2-c2ccccc2)cc1OC" ? 38 µM (inactive)
